- Assay Protocol: Bulk density, tapped density and Carr index
- Type: physicochemical
- Run Parameters: spray dried amorphous ipatasertib monohydrochloride powder; monohydrochloride
Structures can show the parent of a compound that is named as a salt.
In this section we review reported Bulk density values for a set of compounds.
The answer should read as a number with its unit following.

CC(C)NC[C@@H](C(=O)N1CCN(c2ncnc3c2[C@H](C)C[C@H]3O)CC1)c1ccc(Cl)cc1 [Composition 140910419, ipatasertib monohydrochloride] :: 0.44 gcm^−3
CC(C)NC[C@@H](C(=O)N1CCN(c2ncnc3c2[C@H](C)C[C@H]3O)CC1)c1ccc(Cl)cc1 [Composition 141210423, ipatasertib monohydrochloride] :: 0.39 gcm^−3
CC(C)NC[C@@H](C(=O)N1CCN(c2ncnc3c2[C@H](C)C[C@H]3O)CC1)c1ccc(Cl)cc1 [Composition 140110409, ipatasertib monohydrochloride] :: 0.27 gcm^−3

Given the compound CC(C)NC[C@@H](C(=O)N1CCN(c2ncnc3c2[C@H](C)C[C@H]3O)CC1)c1ccc(Cl)cc1 [Composition 141210424, ipatasertib monohydrochloride] , what is its reported Bulk density?
0.37 gcm^−3

And for CC(C)NC[C@@H](C(=O)N1CCN(c2ncnc3c2[C@H](C)C[C@H]3O)CC1)c1ccc(Cl)cc1 [Composition 141210426, ipatasertib monohydrochloride] ?
0.24 gcm^−3

And for CC(C)NC[C@@H](C(=O)N1CCN(c2ncnc3c2[C@H](C)C[C@H]3O)CC1)c1ccc(Cl)cc1 [Composition 140210413, ipatasertib monohydrochloride] ?
0.45 gcm^−3

And for CC(C)NC[C@@H](C(=O)N1CCN(c2ncnc3c2[C@H](C)C[C@H]3O)CC1)c1ccc(Cl)cc1 [Composition 130710452, ipatasertib monohydrochloride] ?
0.32 gcm^−3

And for CC(C)NC[C@@H](C(=O)N1CCN(c2ncnc3c2[C@H](C)C[C@H]3O)CC1)c1ccc(Cl)cc1 [Composition 130710451, ipatasertib monohydrochloride] ?
0.48 gcm^−3

* * *

- Assay Protocol: Bulk density, tapped density and Carr index
- Type: physicochemical
- Run Parameters: spray dried amorphous ipatasertib monohydrochloride powder; monohydrochloride
Counter-ions that a name gives are not always drawn.
In this section we review reported Bulk density values for a set of molecules.
Hi! Could you send only the number? It should be in gcm^−3, unit omitted.

Example molecules with recorded Bulk density:
CC(C)NC[C@@H](C(=O)N1CCN(c2ncnc3c2[C@H](C)C[C@H]3O)CC1)c1ccc(Cl)cc1 [Composition 140910416, ipatasertib monohydrochloride] :: 0.40
CC(C)NC[C@@H](C(=O)N1CCN(c2ncnc3c2[C@H](C)C[C@H]3O)CC1)c1ccc(Cl)cc1 [Composition 140910418, ipatasertib monohydrochloride] :: 0.39
CC(C)NC[C@@H](C(=O)N1CCN(c2ncnc3c2[C@H](C)C[C@H]3O)CC1)c1ccc(Cl)cc1 [Composition 130710450, ipatasertib monohydrochloride] :: 0.42
CC(C)NC[C@@H](C(=O)N1CCN(c2ncnc3c2[C@H](C)C[C@H]3O)CC1)c1ccc(Cl)cc1 [Composition 140110408, ipatasertib monohydrochloride] :: 0.34

# context switch: different molecule, same Bulk density
Given the molecule CC(C)NC[C@@H](C(=O)N1CCN(c2ncnc3c2[C@H](C)C[C@H]3O)CC1)c1ccc(Cl)cc1 [Composition 140910415, ipatasertib monohydrochloride] , what is its reported Bulk density?
0.42
